Target: T1, human PD-L1 expressed on mammalian cells (human, UniProt Q9NZQ7 19-290)
T1 construct: whole, on cells; also called PDL1-CHOK1 cells; PDL1-Raji cells
T1 sequence (Q9NZQ7 19-290): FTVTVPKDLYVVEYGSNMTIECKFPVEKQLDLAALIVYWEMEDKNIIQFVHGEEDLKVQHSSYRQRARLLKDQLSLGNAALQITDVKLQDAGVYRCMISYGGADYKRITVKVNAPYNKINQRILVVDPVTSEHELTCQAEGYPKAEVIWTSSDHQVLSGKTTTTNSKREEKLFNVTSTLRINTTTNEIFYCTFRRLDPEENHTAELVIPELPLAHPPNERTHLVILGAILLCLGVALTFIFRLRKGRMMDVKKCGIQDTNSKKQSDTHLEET
Experiment: FACS receptor blocking on PDL1-CHOK1 cells, competitor Bio-PD1 (30 µg/ml)
I'd appreciate it if you could supply TOP values for the items below.

Documented TOP of Hu1210-17 (antibody, V domains shown, Hu1210 VH.4b x Vk.1; human gamma 1 / kappa constant domains) VH: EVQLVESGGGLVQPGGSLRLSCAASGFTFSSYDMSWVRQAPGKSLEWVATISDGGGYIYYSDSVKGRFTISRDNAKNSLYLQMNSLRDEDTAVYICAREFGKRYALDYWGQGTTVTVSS VL: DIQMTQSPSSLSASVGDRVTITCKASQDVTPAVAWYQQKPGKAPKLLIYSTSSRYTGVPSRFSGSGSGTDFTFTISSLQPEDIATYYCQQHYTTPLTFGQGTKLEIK : 80.9

Notebook: Hu1210-19 (antibody, V domains shown, Hu1210 VH.3a x Vk.1a; human gamma 1 / kappa constant domains) VH: EVQLLESGGGLVQPGGSLRLSCAASGFTFSSYDMSWVRQAPGKSLEWVATISDGGGYIYYSDSVKGRFTISRDNSKNTLYLQMNSLRAEDTAVYICAREFGKRYALDYWGQGTTVTVSS VL: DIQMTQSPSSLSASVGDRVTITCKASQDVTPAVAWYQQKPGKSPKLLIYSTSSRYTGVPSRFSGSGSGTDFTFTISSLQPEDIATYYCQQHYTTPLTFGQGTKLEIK , TOP read as 87.5
